- Tested on: taste testers
- ASSAY DETAILS: Determination of the taste quality
- Type: in vivo
- APPLIED CONDITIONS: 1:10000, 10 determinations
PARAMETER: Percentage sweet

INSERT INTO results (molecule, result) VALUES
  ('O=C1NS(=O)(=O)c2ccccc21 [Y, saccharine, reference compound]', '72%'),
  ('O=C1NS(=O)(=O)c2cccc(O)c21', '94%'),
  ('O=C1NS(=O)(=O)c2cccc(O)c21.[Na]', '96%'),
  ('O=C1NS(=O)(=O)c2cc(O)cc(O)c21', '86%'),
  ('O=C1NS(=O)(=O)c2cc(O)ccc21 [Z, reference compound]', '81%');

###

- Tested on: taste testers
- ASSAY DETAILS: Determination of the taste quality
- Format: in vivo
- APPLIED CONDITIONS: 1:10000, 10 determinations
Quick list: Percentage other taste per entry.
PARAMETER: Percentage other taste

INSERT INTO measurements (compound, result) VALUES
  ('O=C1NS(=O)(=O)c2cccc(O)c21 [Substance A]', '4%'),
  ('O=C1NS(=O)(=O)c2cccc(O)c21.[Na]', '2%'),
  ('O=C1NS(=O)(=O)c2cc(O)ccc21 [Z, reference compound]', '12%'),
  ('O=C1NS(=O)(=O)c2cc(O)cc(O)c21 [Substance C]', '11%'),
  ('O=C1NS(=O)(=O)c2ccccc21 [Y, saccharine, reference compound]', '7%');

###

- System: taste testers
- ASSAY DETAILS: Determination of the threshold concentration (sweet taste)
- Type: in vivo
- APPLIED CONDITIONS: concentration 1:100000
Parameter: Average value of evaluation points. Scope: all listed entries.
PARAMETER: Average value of evaluation points (points)

INSERT INTO assay_data (compound, tested_system, numeric_readout) VALUES
  ('O=C1NS(=O)(=O)c2cccc(O)c21 [Substance A]', 'taste testers', 0.2),
  ('O=C1NS(=O)(=O)c2cc(O)cc(O)c21 [Substance C]', 'taste testers', 0.0),
  ('O=C1NS(=O)(=O)c2ccccc21 [Y, saccharine, reference compound]', 'taste testers', 0.4),
  ('O=C1NS(=O)(=O)c2cccc(O)c21.[Na]', 'taste testers', 0.0),
  ('O=C1NS(=O)(=O)c2cc(O)ccc21 [Z, reference compound]', 'taste testers', 0.0);
